// IC50 lookup, one value per entry
target: DYRK1A (Rattus norvegicus, UniProt Q63470); assay: DYRK1A kinase inhibition assay; type: biochemical; conditions: mean of triplicates, variation max 20%; ATP 15 µM, 30 °C

Observe how each entry below is paired with its result.
COc1c(O)cc2c3c(cc4ccc(O)cc4c13)NC2=O [Compound 4, aristolactam AIIIA] : 0.08 µM
COc1ccc2c(c1O)-c1c3c(cc4c1C(C2)N(C)CC4)OCO3 (single isomer, unassigned; (+)) [Compound 9, (+)-bulbocapnine] : > 30 µM

Turning now to a further compound:
query: // Input: COc1cc2c3c(c1O)-c1c(ccc(OC)c1OC)CC3N(C)CC2 (single isomer, unassigned; (+)) [Compound 6, (+)-corydine] . Output its IC50 only.
result: > 30 µM
